Experiment: Pharmacokinetics, intraperitoneal administration
Assay type: in vivo, Swiss Webster mice
Details: male, Swiss Webster, mouse, plasma, ip, 100 mg/kg, mice, intraperitoneal, 120 min
Could you please report measured concentration at 120 min for the items listed next?
One number for each entry, in ng/mL.

Quick note, concentration at 120 min for `CCc1ccccc1-c1nc(CN[C@@H]2C[C@@H]3C[C@H]([C@H]2C)C3(C)C)c(C)o1` landed at 1080

// below: concentration at 120 min requested for another compound
Quick note, concentration at 120 min for `Cc1oc(-c2ccc3c(c2)OCO3)nc1CN[C@@H]1C[C@@H]2C[C@H]([C@H]1C)C2(C)C` landed at 865

====

Could you please report measured inhibition at 66.7 µM for the items listed next?
Target: S. mansoni TGR (Schistosoma mansoni)
Construct: made in house
Sequence (Q962Y6 1-598): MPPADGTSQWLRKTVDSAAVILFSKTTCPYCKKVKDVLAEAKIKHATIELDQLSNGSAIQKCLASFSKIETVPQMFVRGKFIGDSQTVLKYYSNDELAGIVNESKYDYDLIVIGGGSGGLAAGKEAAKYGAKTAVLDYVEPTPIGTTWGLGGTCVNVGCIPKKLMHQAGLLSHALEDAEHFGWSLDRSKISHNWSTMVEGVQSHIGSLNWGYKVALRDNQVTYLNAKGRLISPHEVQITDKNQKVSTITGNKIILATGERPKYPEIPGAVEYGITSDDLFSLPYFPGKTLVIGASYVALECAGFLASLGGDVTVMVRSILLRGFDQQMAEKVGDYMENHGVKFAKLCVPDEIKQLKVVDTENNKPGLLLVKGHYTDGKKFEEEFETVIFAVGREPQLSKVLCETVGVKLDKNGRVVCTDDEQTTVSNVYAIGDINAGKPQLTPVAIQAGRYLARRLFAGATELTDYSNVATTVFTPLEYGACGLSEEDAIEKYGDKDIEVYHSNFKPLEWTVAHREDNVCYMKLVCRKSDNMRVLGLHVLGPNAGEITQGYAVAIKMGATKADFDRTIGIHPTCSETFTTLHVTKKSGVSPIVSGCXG
Experiment: S. mansoni TGR enzyme inhibition (DTNB reduction)
Type: biochemical
Conditions: TGR, 15 minutes pre-incubation, compound 66.7 µM; read-out: % inhibition
Give bare numbers, in %.

Quick note, inhibition at 66.7 µM for C#CCN(Cc1nc(-c2ccccc2)oc1C)[C@@H]1C[C@@H]2C[C@H]([C@H]1C)C2(C)C [Compound 6] landed at 96.4

Quick note, inhibition at 66.7 µM for C[C@@H]1[C@H]2C[C@@H](C[C@H]1NCc1nc3ccccc3n1C1CCCCCC1)C2(C)C [Compound 8] landed at 78.8

Quick note, inhibition at 66.7 µM for CCc1ccccc1-c1nc(CN[C@@H]2C[C@@H]3C[C@H]([C@H]2C)C3(C)C)c(C)o1 [Compound 2] landed at 12.5

Record inhibition at 66.7 µM for all entries; do not skip any.
1. Cc1oc(C2CCCCC2)nc1C(=O)N[C@@H]1C[C@@H]2C[C@H]([C@H]1C)C2(C)C [Compound 7]
2. CC1C(NCc2cn(C3OCC(O)C(O)C3O)c3ccccc23)CC2CC1C2(C)C (centres unmarked) [Compound 9]

1. 95.1
2. 68.2

====

Biological target: Human GR (Homo sapiens)
Construct: made in house
Sequence (P00390 44-522): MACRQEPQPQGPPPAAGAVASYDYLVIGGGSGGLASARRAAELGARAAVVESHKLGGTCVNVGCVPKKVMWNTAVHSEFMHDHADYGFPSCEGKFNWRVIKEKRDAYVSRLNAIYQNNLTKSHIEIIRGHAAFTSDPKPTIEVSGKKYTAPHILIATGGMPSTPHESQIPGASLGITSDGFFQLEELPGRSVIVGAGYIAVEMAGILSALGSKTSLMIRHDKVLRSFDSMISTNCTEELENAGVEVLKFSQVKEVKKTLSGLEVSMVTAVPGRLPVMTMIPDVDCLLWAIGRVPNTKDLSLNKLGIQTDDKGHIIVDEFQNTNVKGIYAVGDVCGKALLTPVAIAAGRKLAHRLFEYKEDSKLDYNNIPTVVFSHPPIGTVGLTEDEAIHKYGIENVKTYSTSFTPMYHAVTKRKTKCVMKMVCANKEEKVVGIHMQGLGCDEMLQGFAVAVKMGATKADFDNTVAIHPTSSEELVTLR
Test: Human GR enzyme inhibition (GSSG reduction, NADPH oxidation)
Assay type: biochemical
Conditions: hGR, 6 hours pre-incubation, compound 30 µM; read-out: % inhibition
property: inhibition at 30 µM (%)
One number for each entry, in %.

Quick note, inhibition at 30 µM for Cc1oc(C2CCCCC2)nc1C(=O)N[C@@H]1C[C@@H]2C[C@H]([C@H]1C)C2(C)C [Compound 7] landed at -2.19

Record inhibition at 30 µM for all entries; do not skip any.
1. Cc1oc(-c2ccc3c(c2)OCO3)nc1CN[C@@H]1C[C@@H]2C[C@H]([C@H]1C)C2(C)C [Compound 1]
2. CC1C(NCc2cn(C3OCC(O)C(O)C3O)c3ccccc23)CC2CC1C2(C)C (centres unmarked) [Compound 9]

[-1.06, -1.45]

Record inhibition at 30 µM for all entries; do not skip any.
1. C[C@@H]1[C@H]2C[C@@H](C[C@H]1NCc1nc3ccccc3n1C1CCCCCC1)C2(C)C [Compound 8]
2. CCc1ccccc1-c1nc(CN[C@@H]2C[C@@H]3C[C@H]([C@H]2C)C3(C)C)c(C)o1 [Compound 2]

[-1.03, -3.97]

====

Experiment: Cytotoxicity in mammalian cells (Cell Titer Glo)
Format: cell-based
Details: African green monkey; Vero cells, Conc. 35 µM
Could you please report measured viability at 24 h, 35 µM for the items listed next?
One number for each entry, in %.

Past entries and their recorded results:
Quick note, viability at 24 h, 35 µM for `Cc1oc(C2CCCCC2)nc1C(=O)N[C@@H]1C[C@@H]2C[C@H]([C@H]1C)C2(C)C` landed at 85.8

Quick note, viability at 24 h, 35 µM for `Cc1oc(-c2ccc3c(c2)OCO3)nc1CN[C@@H]1C[C@@H]2C[C@H]([C@H]1C)C2(C)C` landed at 83.3

// below: viability at 24 h, 35 µM requested for another compound
Quick note, viability at 24 h, 35 µM for `CCc1ccccc1-c1nc(CN[C@@H]2C[C@@H]3C[C@H]([C@H]2C)C3(C)C)c(C)o1` landed at 75.4

Data origin: paper PMC10287695
